- Test system: SKBR3 cells (HER2 expressing cells)
- Protocol Summary: CellTiter-Glo cell viability assay, SKBR3
- Format: cell-based
- Applied Conditions: PBD compounds, 72 h incubation
Property Name: pIC50
Interpret pIC50 as the negative base-10 log of the concentration measured in mol/L.

What value of pIC50 has been recorded for this entry: C=C1C[C@H]2C=Nc3cc(OCCCC(=O)Nc4cn(C)c(C(=O)Nc5cc(C(=O)Nc6cc(C(=O)Nc7ccc8[nH]ccc8c7)n(C)c6)n(C)c5)n4)c(OC)cc3C(=O)N2C1 [Compound 82]
8.44

---

IC50 values for the compounds below.
- Tested on: SKBR3 cells (HER2 expressing cells)
- Protocol Summary: CellTiter-Glo cell viability assay, SKBR3
- Assay type: cell-based
- Applied Conditions: Homo sapiens, SK-BR-3; PBD compounds, 72 h incubation
- Method: PBD compounds and conjugates thereof were evaluated for their antiproliferation properties in tumor cell lines in vitro using CellTiter-Glo® (Promega Corp). […] CellTiter-Glo® reagent was added to the wells at room temperature and the luminescent signal was measured after 10 min using a SpectraMax M5 plate reader (Molecular Devices). […] IC50 values were determined from four-parameter curve fitting.
Field format: number, assumed nM, no unit text.

Reference set (2 entries):
{"Smiles": "C=C1C[C@@H]2C=Nc3cc(OCCCC(=O)Nc4cc(C(=O)Nc5cc(C(=O)Nc6cc(C(=O)NCCCO)n(C)c6)n(C)c5)n(C)c4)c(OC)cc3C(=O)N2C1", "IC50 / nM": 2.5}
{"Smiles": "C=C1C[C@H]2C=Nc3cc(OCCCC(=O)Nc4cn(C)c(C(=O)Nc5cc(C(=O)Nc6cc(C(=O)O)n(C)c6)n(C)c5)n4)c(OC)cc3C(=O)N2C1", "IC50 / nM": 260}

What value of IC50 has been recorded for this entry: C=C1C[C@H]2C=Nc3cc(OCCCC(=O)Nc4cn(C)c(C(=O)Nc5cc(C(=O)Nc6cc(C(=O)n7ccc8cc(N)ccc87)n(C)c6)n(C)c5)n4)c(OC)cc3C(=O)N2C1
0.15
